Molecular target: human Npt2a (Homo sapiens, UniProt Q06495)
Construct: expressed in transfected cells
Sequence (Q06495 whole entry): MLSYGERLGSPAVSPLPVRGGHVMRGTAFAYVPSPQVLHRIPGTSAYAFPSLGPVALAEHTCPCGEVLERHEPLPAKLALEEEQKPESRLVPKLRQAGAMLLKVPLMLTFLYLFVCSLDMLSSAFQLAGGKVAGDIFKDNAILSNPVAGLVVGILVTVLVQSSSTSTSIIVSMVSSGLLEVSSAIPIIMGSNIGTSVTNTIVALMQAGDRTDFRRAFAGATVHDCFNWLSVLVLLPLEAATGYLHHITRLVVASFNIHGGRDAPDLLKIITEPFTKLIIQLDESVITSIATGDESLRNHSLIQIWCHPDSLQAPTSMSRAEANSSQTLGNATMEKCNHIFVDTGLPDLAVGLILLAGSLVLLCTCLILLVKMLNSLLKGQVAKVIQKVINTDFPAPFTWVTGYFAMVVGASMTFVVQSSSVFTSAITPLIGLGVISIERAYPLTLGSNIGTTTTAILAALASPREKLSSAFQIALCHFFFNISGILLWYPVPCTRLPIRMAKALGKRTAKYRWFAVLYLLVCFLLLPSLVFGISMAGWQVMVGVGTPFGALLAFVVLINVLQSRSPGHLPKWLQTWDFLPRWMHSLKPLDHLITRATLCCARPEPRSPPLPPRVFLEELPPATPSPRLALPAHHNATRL
Assay: Npt2a activity cell based assay, membrane potential dye, CHO T-REx hNpt2a cells
Conditions: doxycycline-induced, depolarization by sodium phosphate influx, average or median values if tested more than once
Recorded measurements of pIC50, one per entry
The scale used: pIC50 is minus the common logarithm of the concentration in molar units.

Cc1nn(-c2cc(Nc3c(C)c(-c4ccc(F)cc4)nn3CC3CC3)ncn2)c(C)c1OC(=O)N(C)C [Example 520]	5.80
CCc1c(Nc2cc(-n3nc(C)c(C(=O)N4CCC(C(F)(F)F)C4)c3C)ncn2)nn(C)c1-c1ccc(F)cc1 (stereo not shown) [Example 272]	6.47
CCc1c(Nc2cc(-n3nc(C)c(C(=O)N4CC(F)(F)C4)c3C)ncn2)nn(C)c1-c1ccc(F)cc1 [Example 124]	6.81
CCc1c(-c2ccc(F)cc2)n[nH]c1Nc1cc(-n2nc(C)cc2C(F)F)ncn1 [Example 2]	7.92
CCOC(=O)c1c(C)nn(-c2cc(Nc3c(C)c(-c4ccc(C#N)cc4)nn3CC3CC3)ncn2)c1C [Example 149]	8.15
Cc1cc(C)n(-c2cc(Nc3c(Cl)c(-c4ccc(F)cc4)nn3C)ncn2)n1 [Example 90]	6.88

// below: pIC50 requested for another compound
INPUT: What value of pIC50 has been reported for the following compound? CCc1c(-c2ccc(F)cc2)nn(C)c1Nc1cc(-n2nc(C)cc2C(C)(C)O)ncn1 [Example 264]
OUTPUT: 6.30
